The measured values listed here are drawn from patent US20220363686A1.

Target: HBV core protein (C-terminal truncated core protein containing 149 amino acids of the N-terminal assembly domain) (UniProt P03146)
Sequence (P03146 whole entry, the tested form may be a part): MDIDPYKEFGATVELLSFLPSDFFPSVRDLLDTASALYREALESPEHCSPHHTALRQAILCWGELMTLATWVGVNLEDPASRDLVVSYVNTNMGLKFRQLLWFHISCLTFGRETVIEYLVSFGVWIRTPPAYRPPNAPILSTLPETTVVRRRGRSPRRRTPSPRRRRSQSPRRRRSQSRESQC
Assay: Biochemical capsid assembly assay (fluorescence quenching)
Conditions: read-out: Assembly Activity; BODIPY-FL labelled core protein, assembly started with NaCl, read after 6 min
reported_metric: IC50

Worked cases, answers included:
Cc1c(F)ccc2[nH]c(C(=O)N3CCn4ncc(C(=O)N5CCC(O)CC56CC6)c4C3)cc12 (centres unmarked) = < 5 µM
CN(C(=O)c1cnn2c1CN(C(=O)c1cc3ccccc3[nH]1)CC2)C1CC1 = < 5 µM
CN(C(=O)c1cnn2c1CN(C(=O)c1cc3c(Cl)cc(F)cc3[nH]1)CC2)C1(CO)CC1 = < 5 µM
O=C(c1cc2ccccc2[nH]1)N1CCn2ncc(C(=O)N3CCC(F)(F)C3)c2C1 = < 5 µM
CN(Cc1ccccc1)C(=O)c1cnn2c1CN(C(=O)c1cc3ccccc3[nH]1)CC2 = < 5 µM
O=C(c1cc2ccccc2[nH]1)N1CCn2ncc(C(=O)N(C3CC3)C3CC3)c2C1 = < 5 µM
CN(C(=O)c1cnn2c1CN(C(=O)c1cc3ccccc3[nH]1)CC2)C1COC1 = < 5 µM

Turning now to a further compound:
QUERY: Requested read-out: IC50. Entry: CC1Cn2ncc(C(=O)N[C@H](C)C(F)(F)F)c2CN1C(=O)c1cc2cc(F)c(Cl)cc2[nH]1 (some centres unmarked)
RESULT: < 5 µM

###

Molecular target: HBV core protein (C-terminal truncated core protein containing 149 amino acids of the N-terminal assembly domain) (UniProt P03146)
Assay: Biochemical capsid assembly assay (fluorescence quenching)
Conditions: read-out: Assembly Activity; BODIPY-FL labelled core protein, assembly started with NaCl, read after 6 min
reported_metric: IC50

Worked cases, answers included:
CC1Cn2ncc(C(=O)N[C@H](C)C(F)(F)F)c2CN1C(=O)c1cc2ccccc2[nH]1 (some centres unmarked) = < 5 µM
CC1Cn2ncc(C(=O)N(C)C3(COC(F)F)CC3)c2CN1C(=O)c1cc2ccccc2[nH]1 (centres unmarked) = < 5 µM
CN1CCN(S(=O)(=O)c2cnn3c2CN(C(=O)c2cc4ccccc4[nH]2)CC3)CC1 = 5 to 10 µM

For each of the items listed, what is its IC50?
1. COCC1(N(C)C(=O)c2cnn3c2CN(C(=O)c2cc4ccccc4[nH]2)C(C)C3)CC1 (centres unmarked) [Example 1]
2. CN(C(=O)c1cnn2c1CN(C(=O)c1cc3ccccc3[nH]1)CC2)C1(c2ccncc2)CC1
3. Cc1cc(F)cc2[nH]c(C(=O)N3CCn4ncc(C(=O)N(C)C5(CO)CC5)c4C3)cc12
4. O=C(c1cc2ccccc2[nH]1)N1CCn2ncc(S(=O)(=O)NCC3CCOC3)c2C1 (centres unmarked)
5. CN(C(=O)c1cnn2c1CN(C(=O)c1cc3c(F)ccc(F)c3[nH]1)CC2)C1(COC(F)F)CC1

RESULT:
< 5 µM
< 5 µM
< 5 µM
5 to 10 µM
< 5 µM

###

Exercise: for every item that follows, state its recorded CC50 at 6 days.
Test: Cell viability assay (AlamarBlue)
Conditions: human, HepAD38 cells

Worked cases, answers included:
O=C(c1cc2ccccc2[nH]1)N1CCn2ncc(S(=O)(=O)NCC3(O)CCC3)c2C1 [Example 27] = > 10 µM
CC(COC(F)F)NC(=O)c1cnn2c1CN(C(=O)c1cc3ccccc3[nH]1)CC2 (centres unmarked) [Example 89] = > 10 µM
CC1Cn2ncc(C(=O)NC3(COC(F)F)CC3)c2CN1C(=O)c1cc2ccccc2[nH]1 (single isomer, unassigned) [Example 131] = > 10 µM
COCC1(N(C)C(=O)c2cnn3c2CN(C(=O)c2cc4c(F)cc(F)cc4[nH]2)CC3)CC1 [Example 8] = > 10 µM

For each of the items listed, what is its CC50 at 6 days?
1. O=C(c1cc2ccccc2[nH]1)N1CCn2ncc(C(=O)N3CC(F)(F)CC34CC4)c2C1 [Example 19]
2. O=C(NC1(COC(F)F)CC1)c1cnn2c1CN(C(=O)c1cc3c(F)c(F)ccc3[nH]1)CC2 [Example 104]
3. CN(C(=O)c1cnn2c1CN(C(=O)c1cc3ccccc3[nH]1)CC2)C1(C)COC1 [Example 136]
4. C[C@@H](NC(=O)c1cnn2c1CN(C(=O)c1cc3c(Cl)cccc3[nH]1)CC2)C(F)(F)F [Example 115]

RESULT:
["> 10 µM", "> 10 µM", "> 10 µM", "> 10 µM"]

###

Exercise: for every item that follows, state its recorded IC50.
Target: HBV core protein (C-terminal truncated core protein containing 149 amino acids of the N-terminal assembly domain) (UniProt P03146)
Assay: Biochemical capsid assembly assay (fluorescence quenching)
Parameters: rows headed: Assembly Activity; other: BODIPY-FL labelled core protein, assembly started with NaCl, read after 6 min
Details: read-out: Assembly Activity; BODIPY-FL labelled core protein, assembly started with NaCl, read after 6 min

Worked cases, answers included:
CN(C(=O)c1cnn2c1CN(C(=O)c1cc3ccccc3[nH]1)CC2)C1(CCOC(F)F)CCC1 = < 5 µM
CN(C(=O)c1cnn2c1CN(C(=O)c1cc3c(Cl)c(F)ccc3[nH]1)CC2)C1(CO)CC1 = < 5 µM
CN(C(=O)c1cnn2c1CN(C(=O)c1cc3ccccc3[nH]1)CC2)C1(c2cocn2)CC1 = < 5 µM
O=C(c1cc2c(Cl)cccc2[nH]1)N1CCn2ncc(C(=O)N3CCCOCC34CC4)c2C1 = < 5 µM
CN(CCOC(F)F)C(=O)c1cnn2c1CN(C(=O)c1cc3ccccc3[nH]1)CC2 = < 5 µM

For each of the items listed, what is its IC50?
1. O=C(NC1(CCOC(F)F)CCOCC1)c1cnn2c1CN(C(=O)c1cc3ccccc3[nH]1)CC2
2. CCc1cccc2[nH]c(C(=O)N3CCn4ncc(C(=O)N(C)C5(CO)CC5)c4C3)cc12
3. Cc1c(F)ccc2[nH]c(C(=O)N3CCn4ncc(C(=O)N[C@H](C)C(F)(F)F)c4C3)cc12
4. O=C(c1cc2c(F)c(F)ccc2[nH]1)N1CCn2ncc(C(=O)N3CCCOCC34CC4)c2C1
5. COCC1(N(C)C(=O)c2cnn3c2CN(C(=O)c2cc4c(F)cc(F)cc4[nH]2)CC3)CC1
6. CN(C(=O)c1cnn2c1CN(C(=O)c1cc3c(F)c(F)ccc3[nH]1)CC2)C1(COC(F)F)CC1
7. CN(CCO)C(=O)c1cnn2c1CN(C(=O)c1cc3ccccc3[nH]1)CC2

RESULT:
1: < 5 µM; 2: < 5 µM; 3: < 5 µM; 4: < 5 µM; 5: < 5 µM; 6: < 5 µM; 7: < 5 µM
